Where these numbers come from: PubChem BioAssay AID1745844

# System: rodent lifetime carcinogenesis bioassay, tumor incidence TD50
# test: carcinogenic potency in animals, long-term in vivo studies, CPDB compilation (AID 1745844)
# particulars: rat; strain Charles River CD (Sprague-Dawley); females; in feed; site: mammary gland; lesion: adenocarcinoma; dosed 69 weeks; study length 69 weeks
measuredEndpoint: TD50

**Query** API: value(readout=TD50, system=rodent lifetime carcinogenesis bioassay, tumor incidence TD50) for record Nc1ccc(-c2ccc(N)c(Cl)c2)cc1Cl
**Result** 18.3 mg/kg/day

----------
# Tested on: rodent lifetime carcinogenesis bioassay, tumor incidence TD50
# test: carcinogenic potency in animals, long-term in vivo studies, CPDB compilation (AID 1745844)
# particulars: rat; strain Fischer 344; females; in feed; site: kidney; lesion: tubule adenoma; dosed 66 weeks; study length 66 weeks
measuredEndpoint: TD50
Provide the measurement as a number trailed by its unit.

**Query** Find the recorded TD50 belonging to Nc1c(Br)cc(Br)c2c1C(=O)c1ccccc1C2=O and report it.
**Result** 1520 mg/kg/day

----------
# Tested on: rodent lifetime carcinogenesis bioassay, tumor incidence TD50
# test: carcinogenic potency in animals, long-term in vivo studies, CPDB compilation (AID 1745844)
# particulars: rat; strain Fischer 344; males; by gavage; site: subcutaneous tissue; lesion: fibroma; dosed 94 weeks; study length 104 weeks
measuredEndpoint: TD50 (mg/kg/day)
Field: numeric (mg/kg/day). Do not append units.

**Query** Find the recorded TD50 belonging to ClCC(Cl)CCl and report it.
**Result** 20.2

----------
# System: rodent lifetime carcinogenesis bioassay, tumor incidence TD50
# test: carcinogenic potency in animals, long-term in vivo studies, CPDB compilation (AID 1745844)
# particulars: rat; strain Fischer 344; females; in drinking water; site: Zymbal's gland; lesion: adenoma + carcinoma; dosed 98 weeks; study length 104 weeks
measuredEndpoint: TD50

**Query** Find the recorded TD50 belonging to Cc1ccc(S(=O)(=O)Oc2ccc(N=Nc3ccc(-c4ccc(N=Nc5c(O)ccc6cc(S(=O)(=O)O)cc(S(=O)(=O)O)c56)c(C)c4)cc3C)cc2)cc1 and report it.
**Result** 15.6 mg/kg/day

----------
# Test system: rodent lifetime carcinogenesis bioassay, tumor incidence TD50
# test: carcinogenic potency in animals, long-term in vivo studies, CPDB compilation (AID 1745844)
# particulars: mouse; strain B6C3F1; females; in feed; site: any site (literature study); lesion: several types; types named in the paper; dosed 103 weeks; study length 109 weeks
Activity calls are given as the source filed them. The rule behind the calls is not given here.
measuredEndpoint: TD50

**Query** Find the recorded TD50 belonging to NCCCCCCCCCCC(=O)O and report it.
**Result** 15600 mg/kg/day (inactive)

----------
# System: rodent lifetime carcinogenesis bioassay, tumor incidence TD50
# test: carcinogenic potency in animals, long-term in vivo studies, CPDB compilation (AID 1745844)
# particulars: rat; strain Fischer 344; females; in drinking water; site: uterus; lesion: endometrial stromal polyp; dosed 96 weeks; study length 97 weeks
measuredEndpoint: TD50 (mg/kg/day)
Field: numeric (mg/kg/day). Do not append units.

**Query** Find the recorded TD50 belonging to COc1cc(-c2ccc(N=Nc3c(S(=O)(=O)O)cc4cc(S(=O)(=O)O)cc(N)c4c3O)c(OC)c2)ccc1N=Nc1c(S(=O)(=O)O)cc2cc(S(=O)(=O)O)cc(N)c2c1O and report it.
**Result** 132
